- Tested on: RAW264.7
- test-name: Cytotoxicity against mouse RAW264.7 cells by MTT assay
- Assay type: cell-based
measure: Activity

COC(=O)[C@]12C(=O)[C@@H](C)O[C@@H]3OC(=O)[C@](C)(C[C@@H]4[C@]1(C)CC=C1C(=CC(=O)OC1(C)C)[C@@]4(C)O)[C@@H]32 = Non-Toxic
C[C@@H]1O[C@@H]2OC(=O)[C@]3(C)C[C@@H]4[C@](C)(C(=O)C=C5C(=CC(=O)OC5(C)C)[C@@]45CO5)[C@H](C1=O)[C@H]23 [BERKELEYACETAL C] = Non-Toxic
C[C@H]1O[C@@H]2OC(=O)[C@]3(C)C[C@@H]4[C@@]5(C)C(=C1O[C@H]5C=C1C(=CC(=O)OC1(C)C)[C@@]41CO1)[C@]23O = Non-Toxic
C[C@@H]1O[C@H]2OC(=O)[C@@]3(C)C[C@H]4[C@@](C)(C(=O)C=C5C(=CC(=O)OC5(C)C)[C@]45CO5)[C@@H](C1=O)[C@@]23O = Non-Toxic
